target: recombinant BACE1 protein (Homo sapiens, UniProt P56817); assay: Biochemical FRET based assay; settings: recombinant BACE1 1 μg/ml, 120 min, pH 5.0
Sequence (P56817 46-501): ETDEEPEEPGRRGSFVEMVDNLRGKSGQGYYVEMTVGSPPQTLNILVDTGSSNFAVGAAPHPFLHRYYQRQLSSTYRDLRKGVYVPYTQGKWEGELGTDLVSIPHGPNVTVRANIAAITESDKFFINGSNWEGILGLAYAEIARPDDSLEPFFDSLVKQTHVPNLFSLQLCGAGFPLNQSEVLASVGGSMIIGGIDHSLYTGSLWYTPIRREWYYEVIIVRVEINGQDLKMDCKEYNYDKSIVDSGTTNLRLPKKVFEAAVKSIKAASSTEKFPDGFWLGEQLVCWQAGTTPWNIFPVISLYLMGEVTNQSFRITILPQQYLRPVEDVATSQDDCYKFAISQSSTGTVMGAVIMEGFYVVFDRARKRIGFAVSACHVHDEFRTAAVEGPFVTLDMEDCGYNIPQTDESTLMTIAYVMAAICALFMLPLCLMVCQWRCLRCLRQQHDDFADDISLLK
measure: Biochemical FRET based assay pIC50

1. COc1cnc(C(=O)Nc2cccc(C3(C)Cn4nc(C(F)(F)F)cc4C(N)=N3)c2)cn1 (racemic) [Compound 30] ... 6.77
2. CC1(c2cc(NC(=O)c3ccc(F)cn3)ccc2F)Cn2ncc(F)c2C(N)=N1 (stereo not shown) ... 7.19
3. CC1(c2cc(NC(=O)c3ccc(F)cn3)ccc2F)Cn2ncc(Cl)c2C(N)=N1 (stereo not shown) ... 6.03
4. Cc1nn2c(c1F)C(N)=NC(C)(c1cc(NC(=O)c3ccn(C(F)F)n3)ccc1F)C2 (stereo not shown) ... 7.12
5. Cc1nn2c(c1F)C(N)=NC(C)(c1cc(NC(=O)c3ccc(F)cn3)ccc1F)C2 (racemic) ... 6.93
6. COc1cnc(C(=O)Nc2cccc(C3(C)Cn4nc(C(F)(F)F)cc4C(N)=N3)c2)cn1 (single isomer, unassigned) [Compound 32] ... 7.20
7. Cc1nc(C(=O)Nc2ccc(F)c(C3(C)Cn4ncc(F)c4C(N)=N3)c2)co1 (stereo not shown) ... 7.23
8. COc1cnc(C(=O)Nc2ccc(F)c(C3(C)Cn4ncc(Cl)c4C(N)=N3)c2)cn1 (stereo not shown) ... 5.86
9. CC1(c2cc(NC(=O)c3ccn(C(F)F)n3)ccc2F)Cn2nc(C(F)F)cc2C(N)=N1 (stereo not shown) ... 7.28
10. Cc1nc(C(=O)Nc2ccc(F)c(C3(C)Cn4ncc(F)c4C(N)=N3)c2)c(C(F)(F)F)o1 (stereo not shown) ... 6.91
